- target.entity: GTPase HRas [G12V] (Homo sapiens, UniProt P01112, G12V)
- Sequence (P01112 whole entry G12V, looked up): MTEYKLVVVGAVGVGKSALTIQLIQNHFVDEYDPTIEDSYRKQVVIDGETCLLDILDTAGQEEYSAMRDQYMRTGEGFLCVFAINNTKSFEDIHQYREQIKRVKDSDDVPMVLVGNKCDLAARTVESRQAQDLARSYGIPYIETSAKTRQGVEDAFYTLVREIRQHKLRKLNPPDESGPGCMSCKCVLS
- procedure.summary: In Vitro Ras-Raf Binding Inhibitory Activity Assay
Each item that follows carries a reported log10(IC50).
# values: log10(IC50), units µM

Sample answers from the record:
>  <compound>
CC(=O)N1/C(=C/c2nc3cc(C(=O)N4CC(C)OC(C)C4)ccc3s2)C(=O)c2ccccc21 (centres undefined) [US20250091994, Example 99]

>  <log10(IC50)>
-0.11

$$$$
>  <compound>
COc1cc(/C=C2/C(=O)c3ccccc3N2C(=O)c2ccccc2)ccc1OCC(N)=O [US20250091994, Example 49]

>  <log10(IC50)>
1.11

$$$$
>  <compound>
CC(=O)N1/C(=C/c2nc3ccc(CNC4CCOCC4)cc3s2)C(=O)c2ccccc21 [US20250091994, Example 135]

>  <log10(IC50)>
-0.10

$$$$
>  <compound>
CC(=O)N1/C(=C\c2nc3ccc(C(=O)N4CCOCC4)cc3s2)C(=O)c2ccccc21 [US20250091994, Example 59]

>  <log10(IC50)>
0.60

$$$$
>  <compound>
CC(=O)N1C(=Cc2ccc3ccc(C(=O)N4CCOCC4)cc3n2)C(=O)c2ccccc21 [US20250091994, Example 62]

>  <log10(IC50)>
0.75

$$$$

Please look at the following compound next.
Lab note: COc1cc(/C=C2/C(=O)c3ccccc3N2C(C)=O)ccc1OS(C)(=O)=O [US20250091994, Example 21] gave log10(IC50) of 0.86

* * *

- target.entity: GTPase HRas [G12V] (Homo sapiens, UniProt P01112, G12V)
- procedure.summary: In Vitro Ras-Raf Binding Inhibitory Activity Assay
test.readout: pIC50
// scale note: pIC50 = -log10(conc_M); give the bare number

>  <compound>
CC(=O)N1/C(=C\c2cc(-c3cccc(-c4cnn(C)c4)c3)c3cc(C(=O)N4CCOCC4)ccc3n2)C(=O)c2ccccc21 [US20250091994, Example 149]

>  <pIC50>
6.52

$$$$
>  <compound>
CC(=O)N1C(=Cc2ccc(C(=O)N3CCOCC3)cc2)C(=O)c2ccccc21 [US20250091994, Example 67]

>  <pIC50>
5.25

$$$$
>  <compound>
CC(=O)N1/C(=C/c2nc3ccc(CNS(C)(=O)=O)cc3s2)C(=O)c2ccccc21 [US20250091994, Example 56]

>  <pIC50>
6.24

$$$$
>  <compound>
CC(=O)N1/C(=C/c2nc3ccc(/C=C/S(=O)(=O)N4CCOCC4)cc3s2)C(=O)c2ccccc21 [US20250091994, Example 43]

>  <pIC50>
5.15

$$$$
>  <compound>
COc1cc(/C=C2/C(=O)c3ccccc3N2C(C)=O)ccc1OC[S+](C)[O-] (stereo unspecified) [US20250091994, Example 25]

>  <pIC50>
5.23

$$$$

Please look at the following compound next.
Lab note: CC(=O)N1/C(=C\c2cc(N3CCC(C#N)CC3)c3cc(C(=O)N4CCOCC4)ccc3n2)C(=O)c2ccccc21 [US20250091994, Example 87] gave pIC50 of 5.68

* * *

- target.entity: GTPase HRas [G12V] (Homo sapiens, UniProt P01112, G12V)
- procedure.summary: In Vitro Ras-Raf Binding Inhibitory Activity Assay
Each item that follows carries a reported log10 IC50.
# values: log10(IC50), units nM

Sample answers from the record:
>  <molecule>
COc1cc(/C=C2/C(=O)c3ccccc3N2C(C)=O)ccc1OCC(=O)N1CCOCC1 [US20250091994, Example 2]

>  <result.number>
3.90

$$$$
>  <molecule>
CC(=O)N1/C(=C\c2cc(Cl)c3cc(C(=O)N4CCOCC4)ccc3n2)C(=O)c2ccccc21 [US20250091994, Example 82]

>  <result.number>
2.79

$$$$

Lab note: CC(=O)N1/C(=C\c2cc(On3nnc4cccnc43)c3cc(C(=O)N4CCOCC4)ccc3n2)C(=O)c2ccccc21 [US20250091994, Example 112] gave log10 IC50 of 2.74

Lab note: CC(=O)N1CCc2c(cccc2-c2cc(/C=C3/C(=O)c4ccccc4N3C(C)=O)nc3ccccc23)C1 [US20250091994, Example 193] gave log10 IC50 of 2.85

Lab note: CC(=O)N1C(=Cc2ccc3cc(C(=O)N4CCNCC4)ccc3n2)C(=O)c2ccccc21 [US20250091994, Example 139] gave log10 IC50 of 3.78

Lab note: CCOC(=O)N1C(=Cc2ccc(OCC(=O)N3CCOCC3)c(OC)c2)C(=O)c2ccccc21 [US20250091994, Example 123] gave log10 IC50 of 3.93

Lab note: CC(=O)NCc1ccc2nc(/C=C3/C(=O)c4ccccc4N3C(C)=O)ccc2c1 [US20250091994, Example 63] gave log10 IC50 of 3.30

Lab note: CC(=O)N1CCc2ccc(-c3c(C(=O)N4CCOCC4)ccc4nc(/C=C5/C(=O)c6ccccc6N5C(C)=O)ccc34)cc2C1 [US20250091994, Example 201] gave log10 IC50 of 2.90

Lab note: CC(=O)N1CCN(c2cc(/C=C3/C(=O)c4ccccc4N3C(C)=O)nc3ccc(C(=O)N4CCOCC4)cc23)CC1 [US20250091994, Example 90] gave log10 IC50 of 3.15

* * *

- target.entity: GTPase HRas [G12V] (Homo sapiens, UniProt P01112, G12V)
- procedure.summary: In Vitro Ras-Raf Binding Inhibitory Activity Assay
Each item that follows carries a reported pIC50.
// scale note: pIC50 = -log10(conc_M); give the bare number

Sample answers from the record:
>  <compound>
CC(=O)N1/C(=C/c2nc3ccc(C(=O)N4CCOCC4)cc3s2)C(=O)c2ccccc21 [US20250091994, Example 58]

>  <pIC50>
6.15

$$$$
>  <compound>
CC(=O)N1C(=Cc2cc(-c3ccc4c(c3)CCN(C)C4)c3cc(C(=O)N4CCOCC4)ccc3n2)C(=O)c2ccccc21 [US20250091994, Example 173]

>  <pIC50>
6.40

$$$$
>  <compound>
CC(=O)N1C(=Cc2ccc(OCC(N)=O)c(Cl)c2)C(=O)c2ccccc21 [US20250091994, Example 17]

>  <pIC50>
5.02

$$$$

Measured pIC50 for this entry CC(=O)N1/C(=C\c2ccc3cc(C(=O)N4CCC(C(=O)O)CC4)ccc3n2)C(=O)c2ccccc21 [US20250091994, Example 129] on GTPase HRas [G12V] (Homo sapiens, UniProt P01112, G12V): 5.82

Measured pIC50 for this entry CC(=O)N1/C(=C\c2ccc3c(-c4cnn(C)c4)c(C(=O)N4CCOCC4)ccc3n2)C(=O)c2ccccc21 [US20250091994, Example 199] on GTPase HRas [G12V] (Homo sapiens, UniProt P01112, G12V): 5.68

Measured pIC50 for this entry CC(=O)N1/C(=C\c2cc(C#N)c3cc(C(=O)N4CCOCC4)ccc3n2)C(=O)c2ccccc21 [US20250091994, Example 86] on GTPase HRas [G12V] (Homo sapiens, UniProt P01112, G12V): 5.74

Measured pIC50 for this entry CC(=O)N1/C(=C\c2cc(-c3ccccc3-c3cnn(C)c3)c3cc(C(=O)N4CCOCC4)ccc3n2)C(=O)c2ccccc21 [US20250091994, Example 196] on GTPase HRas [G12V] (Homo sapiens, UniProt P01112, G12V): 6.10

Measured pIC50 for this entry CC(=O)N1/C(=C/c2nc3cc(/C=C/C(=O)N4CCOCC4)ccc3s2)C(=O)c2ccccc21 [US20250091994, Example 110] on GTPase HRas [G12V] (Homo sapiens, UniProt P01112, G12V): 6.38

Measured pIC50 for this entry CC(=O)N1/C(=C\c2ccc3cc(CN(C(C)=O)C4CCOCC4)ccc3n2)C(=O)c2ccccc21 [US20250091994, Example 75] on GTPase HRas [G12V] (Homo sapiens, UniProt P01112, G12V): 5.68

Measured pIC50 for this entry CC(=O)N1C(=Cc2cc(-c3ccc(Oc4ccccc4)cc3)c3cc(C(=O)N4CCOCC4)ccc3n2)C(=O)c2ccccc21 [US20250091994, Example 92] on GTPase HRas [G12V] (Homo sapiens, UniProt P01112, G12V): 5.55

Measured pIC50 for this entry CC(=O)N1/C(=C\c2cc(-c3ccncc3)c3cc(C(=O)N4CCOCC4)ccc3n2)C(=O)c2ccccc21 [US20250091994, Example 184] on GTPase HRas [G12V] (Homo sapiens, UniProt P01112, G12V): 6.05

Measured pIC50 for this entry COc1cc(C=C2C(=O)c3cccc(F)c3N2C(C)=O)ccc1OCC(=O)N1CCOCC1 [US20250091994, Example 105] on GTPase HRas [G12V] (Homo sapiens, UniProt P01112, G12V): 4.70

Measured pIC50 for this entry CC(=O)N1/C(=C\c2ccc3cc(C(=O)O)ccc3n2)C(=O)c2ccccc21 [US20250091994, Example 127] on GTPase HRas [G12V] (Homo sapiens, UniProt P01112, G12V): 5.68
